Numbers sourced from patent US20260008787A1.

- Study system: KRAS G12D (Homo sapiens, UniProt P01116, G12D)
- Sequence (P01116 1-188 isoform P01116-2 G12D): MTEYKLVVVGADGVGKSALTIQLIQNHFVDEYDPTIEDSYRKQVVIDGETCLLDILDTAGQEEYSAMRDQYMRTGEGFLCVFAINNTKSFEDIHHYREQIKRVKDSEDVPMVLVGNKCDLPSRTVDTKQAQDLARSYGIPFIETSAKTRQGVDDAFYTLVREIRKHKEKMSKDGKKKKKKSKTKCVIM
- Assay name: biochemical
pIC50: −log10 of the molar value.
Measured property: pIC50

>>> print(df.to_string())
                                   compound  observed_value
0  C#Cc1c(F)ccc2cc(O)cc(-c3nc4c5c(nc(OC[C@@]67CCCN6C/C(=C\F)C7)nc5c3F)N3CCCC[C@H]3CO4)c12            8.65
1  C#Cc1c(F)ccc2cc(O)cc(-c3nc4c5c(nc(OC[C@@]67CCCN6C[C@H](F)C7)nc5c3F)N[C@@H](C3CCCO3)CO4)c12 (stereo partly drawn)            6.96
2  C#Cc1c(F)ccc2cc(O)cc(-c3nc4c5c(nc(OC[C@@]67CCCN6C[C@H](F)C7)nc5c3F)N3[C@@H](COC[C@@H]3C)CO4)c12            8.58

----------
- Study system: KRAS G12D (Homo sapiens, UniProt P01116, G12D)
- Assay name: biochemical
pIC50: −log10 of the molar value.
Record Condition met whenever pIC50 is at 8 or higher; record Condition not met when lower.

In [3]: df
Out[3]:
                                   compound        class_label
0  C#Cc1c(F)ccc2cc(F)cc(-c3nc4c5c(nc(OC[C@@]67CCCN6C[C@H](F)C7)nc5c3F)N3CCCC[C@H]3CO4)c12 [Example 89]      Condition met
1  C#Cc1c(F)ccc2cc(O)cc(-c3nc4c5c(nc(OC[C@@]67CCCN6C[C@H](F)C7)nc5c3F)N3CCC[C@H](O)[C@@H]3CO4)c12 [compound 103]  Condition not met
2  CCc1c(F)ccc2cc(O)cc(-c3nc4c5c(nc(OC[C@@]67CCCN6C[C@H](F)C7)nc5c3F)N3CCC[C@](C)(O)[C@@H]3CO4)c12 [Example 114]  Condition not met
3  C#Cc1c(F)ccc2cc(O)cc(-c3nc4c5c(nc(OC[C@@]67CCCN6C[C@H](F)C7)nc5c3F)N3CCC[C@@H](O)[C@H]3CO4)c12 [compound 25]      Condition met
4  Fc1c(-c2c(Cl)ccc3[nH]ncc23)nc2c3c(nc(OC[C@@]45CCCN4C[C@H](F)C5)nc13)N1CCCC[C@H]1CO2 [Example 78]  Condition not met
5  C#Cc1c(F)ccc2cc(O)cc(-c3nc4c5c(nc(OC[C@@]67CCCN6C[C@H](F)C7)nc5c3F)N(C)C3(CC3)CO4)c12 [Example 93]      Condition met

----------
# Lookup of reported IC50 keyed by entry
- Study system: KRAS G12D (Homo sapiens, UniProt P01116, G12D)
- Assay name: biochemical
Measured property: IC50 (nM)

                                   compound  measured_property  readout_unit  sign  observed_value
0  C#Cc1c(F)ccc2cc(O)cc(-c3nc4c5c(nc(OC[C@@]67CCCN6C[C@H](F)C7)nc5c3F)N3CC(C(N)=O)CCC3CO4)c12 (some centres unmarked)               IC50            nM     >           10000
1  C#Cc1c(F)ccc2cc(O)cc(-c3cc4c5c(nc(OC[C@@]67CCCN6C[C@H](F)C7)nc5c3F)N3CCCC[C@H]3CO4)c12               IC50            nM     =            3.28
2  N#Cc1c(N)sc2c(F)ccc(-c3nc4c5c(nc(OC[C@@]67CCCN6C[C@H](F)C7)nc5c3F)N3CCCC[C@H]3CO4)c12               IC50            nM     =            2.35
3  C#Cc1c(F)ccc2cc(O)cc(-c3nc4c5c(nc(OC[C@@]67CCCN6C[C@H](F)C7)nc5c3F)N(CC)[C@@H](C)CO4)c12               IC50            nM     =            2.61
4  C#Cc1c(F)ccc2cc(O)cc(-c3nc4c5c(nc(OC[C@@]67CCCN6C[C@H](F)C7)nc5c3F)N[C@@H](C)CO4)c12               IC50            nM     =             2.1
